All figures here come from patent US20120277209A1.

Tgt: PDE10 (UniProt Q9Y233)
Experiment notes: PDE10 enzyme inhibition, IMAP TR-FRET assay (MPDE10A7 Enzyme Activity and Inhibition)
Type: biochemical
Particulars: PDE10 enzyme inhibition; average IC50 data for each compound; read-out: Average IC50
pIC50: −log10 of the molar value.
Binary call on pIC50: Met from 9 upward, Not met beneath that.

Query: Does the molecule O=C1C=C(c2nccnc2Oc2ccc(Nc3nc4ccccc4s3)c(F)c2)CCC1 [drawing 998] have recorded pIC50 that is 9 or more?
Response: Not met

###

Tgt: UniProt:Q9Y233
Experiment notes: PDE10 enzyme inhibition, IMAP TR-FRET assay (MPDE10A7 Enzyme Activity and Inhibition)
Assay type: biochemical
Particulars: IC50 class against PDE10; read-out: IC50
pIC50: −log10 of the molar value.
Measured metric: pIC50

Query: Query pIC50 for CC(=O)N1CCC(c2nccnc2Oc2ccc(C(O)c3nc4ccccc4[nH]3)cc2)CC1 (stereo not shown)
Response: > 7.60

Query: Query pIC50 for CC#CCOc1nccnc1Oc1ccc(C(=O)c2nc3ccccc3[nH]2)cc1
Response: 6.60 to 7.00

Query: Query pIC50 for Cc1cc(-c2nccnc2Oc2ccc(Nc3nc4ccccc4s3)cc2)ccn1
Response: > 7.60

More entries:
Query: Query pIC50 for COc1ccncc1-c1nccnc1Oc1ccc(C(=O)c2nc3ccccc3[nH]2)cc1
Response: 7.00 to 7.60

###

A collection of compounds and their measured pIC50
Tgt: UniProt:Q9Y233
Experiment notes: PDE10 enzyme inhibition, IMAP TR-FRET assay (MPDE10A7 Enzyme Activity and Inhibition)
Format: biochemical
Particulars: IC50 class against PDE10; read-out: IC50
pIC50: −log10 of the molar value.

Query: Query pIC50 for Cc1ncccc1-c1nccnc1Oc1ccc(C(=O)c2nc3ccccc3[nH]2)cc1 [Example 109]
Response: 7.00 to 7.60

Query: Query pIC50 for COc1cnccc1-c1nccnc1Oc1ccc(C(=O)c2nc3ccccc3[nH]2)cc1 [Example 113]
Response: 7.00 to 7.60

Query: Query pIC50 for COc1ncccc1-c1nccnc1Oc1ccc(C(=O)c2nc3ccccc3n2CCF)cc1 [Example 134]
Response: > 7.60

Query: Query pIC50 for O=C(c1ccc(Oc2nccnc2C2=CCC(F)(F)CC2)cc1)c1nc2ccccc2[nH]1 [Example 199]
Response: > 7.60

Query: Query pIC50 for O=C1CCC(c2nccnc2Oc2ccc(C(=O)c3nc4ccccc4[nH]3)cc2)CC1 [Example 195]
Response: > 7.60

Query: Query pIC50 for COc1ncccc1-c1nccnc1Oc1ccc(Nc2nc3ccccc3s2)cc1 [Example 155]
Response: > 7.60

Query: Query pIC50 for C[C@]1(O)CC[C@H](c2nccnc2Oc2ccc(C(=O)c3nc4ccccc4[nH]3)cc2)CC1 [Example 197]
Response: > 7.60

Query: Query pIC50 for CC(=O)N1CC=C(c2nccnc2Oc2ccc(C(=O)c3nc4ccccc4[nH]3)cc2)CC1 [Example 133]
Response: > 7.60

Query: Query pIC50 for COCC(=O)N1CCC(c2nccnc2Oc2ccc(C(=O)c3nc4ccccc4n3C)cc2)CC1 [Example 243]
Response: > 7.60

Query: Query pIC50 for COC(=O)C1(c2nccnc2Oc2ccc(Nc3nc4ccccc4s3)cc2)CCOCC1 [Example 212]
Response: > 7.60

Query: Query pIC50 for N#Cc1ccc(-c2nccnc2Oc2ccc(Nc3nc4ccccc4s3)cc2)cn1 [Example 142]
Response: > 7.60

Query: Query pIC50 for c1ccc2sc(Nc3ccc(Oc4nccnc4C4CCOCC4)cc3)nc2c1 [Example 208]
Response: > 7.60

Query: Query pIC50 for O=C(c1ccc(Oc2nccnc2-c2ccc[nH]c2=O)cc1)c1nc2ccccc2[nH]1 [Example 106]
Response: > 7.60

###

A collection of compounds and their measured IC50
Tgt: PDE10 (UniProt Q9Y233)
Experiment notes: PDE10 enzyme inhibition, IMAP TR-FRET assay (MPDE10A7 Enzyme Activity and Inhibition)
Format: biochemical
Particulars: PDE10 enzyme inhibition; average IC50 data for each compound; read-out: Average IC50
Report the figure in nM without appending any unit label.

Examples with answers:
Query: Query IC50 for CC(=O)N1CCC(c2nccnc2Oc2ccc(Nc3nc4ccccc4s3)nc2)CC1 [drawing 992]
Response: 0.59

Query: Query IC50 for CC(C)COc1nccnc1Oc1ccc(C(=O)c2nc3ccccc3[nH]2)cc1 [drawing 845]
Response: 26.2

Query: Query IC50 for O=C(c1ccc(Oc2nccnc2[C@@H]2CCC[C@@H](O)C2)cc1)c1nc2ccccc2[nH]1
Response: 0.992

Query: Query IC50 for COc1ncccc1-c1nccnc1Oc1ccc(Nc2nc3cc(F)ccc3s2)cc1 [drawing 964]
Response: 49.7

Query: Query IC50 for O=C(c1ccc(Oc2nccnc2OCCN2CCCC2)cc1)c1nc2ccccc2[nH]1 [drawing 856]
Response: 541

Query: Query IC50 for N#C[C@H]1CCN(c2nccnc2Oc2ccc(Nc3nc4ccccc4s3)cc2)C1 (stereo in doubt)
Response: 3.3

Query: Query IC50 for COc1nccnc1Oc1ccc(C(=O)c2nc3ccccc3[nH]2)cc1 [drawing 843]
Response: 43.6

Query: Query IC50 for O[C@@H]1CCC[C@H](c2nccnc2Oc2ccc(Nc3nc4ccccc4s3)cc2)C1 [drawing 910]
Response: 2.22

Query: Query IC50 for O[C@H]1CCC[C@@H](c2nccnc2Oc2ccc(Nc3nc4ccccc4s3)cc2)C1 [drawing 903]
Response: 1.33

Query: Query IC50 for O=C(c1ccc(Oc2nccnc2C(=O)NC2(Cc3ccccc3)CC2)cc1)c1nc2ccccc2[nH]1 [drawing 822]
Response: 0.575

More entries:
Query: Query IC50 for O=C(c1ccc(Oc2nccnc2C2CCN(CCF)CC2)cc1)c1nc2ccccc2[nH]1 [drawing 963]
Response: 2.5

Query: Query IC50 for O=C(c1ccc(Oc2nccnc2[C@H]2CCC[C@H](O)C2)cc1)c1nc2ccccc2[nH]1 [drawing 915]
Response: 1.12

###

Tgt: PDE10 (UniProt Q9Y233)
Experiment notes: PDE10 enzyme inhibition, IMAP TR-FRET assay (MPDE10A7 Enzyme Activity and Inhibition)
Format: biochemical
Particulars: PDE10 enzyme inhibition; average IC50 data for each compound; read-out: Average IC50
Measured metric: IC50 (nM)
Report the figure in nM without appending any unit label.

Examples with answers:
Query: Query IC50 for O=C(c1ccc(Oc2nccnc2N2CC[C@H](CO)C2)cc1)c1nc2ccccc2[nH]1
Response: 2.54

Query: Query IC50 for C[C@@H](F)C(=O)N1CCC(c2nccnc2Oc2ccc(C(=O)c3nc4ccccc4[nH]3)cc2)CC1 (stereo in doubt)
Response: 0.132

Query: Query IC50 for O=C1CN(c2nccnc2Oc2ccc(Nc3nc4ccccc4s3)cc2)CCN1 [drawing 749]
Response: 6.41

Query: Query IC50 for COc1ncccc1-c1nccnc1Oc1ccc(C(=O)c2nc3cc(F)ccc3[nH]2)cc1 [drawing 931]
Response: 5.84

Query: Query IC50 for O=C(c1ccc(Oc2nccnc2C2=CCOCC2)cc1)c1nc2ncccc2[nH]1 [drawing 879]
Response: 31.7

Query: Query IC50 for c1ccc(Nc2ccc(Oc3nccnc3NCC3CCNCC3)cc2)nc1
Response: 814

Query: Query IC50 for O=C(c1ccc(Oc2nccnc2Cl)cc1)c1nc2ncccc2[nH]1
Response: 171

Query: Query IC50 for O=C(c1ccc(Oc2nccnc2Cl)cc1)c1nc2ccccc2[nH]1 [drawing 714]
Response: 287

More entries:
Query: Query IC50 for O=C(O)C1CN(c2nccnc2Oc2ccc(Nc3nc4ccccc4s3)cc2)C1 [drawing 718]
Response: 2.16

Query: Query IC50 for OC(c1ccc(Oc2nccnc2C2CCOCC2)cc1)c1nc2ccccc2[nH]1 (centres unmarked)
Response: 386

Query: Query IC50 for O=C(c1ccc(Oc2nccnc2C2=CC[C@@H](O)CC2)cc1)c1nc2ccccc2[nH]1 (racemic)
Response: 1.69

Query: Query IC50 for O=C(c1ccc(Oc2nccnc2C2CCCC2)cc1)c1nc2ccccc2[nH]1 [drawing 949]
Response: 1.76

Query: Query IC50 for C[C@@H](O)C1CCN(c2nccnc2Oc2ccc(C(=O)c3nc4ccccc4[nH]3)cc2)CC1 (stereo in doubt)
Response: 0.749

Query: Query IC50 for Fc1cc(Oc2nccnc2C2CCOCC2)ccc1Nc1nc2ccccc2s1 [drawing 877]
Response: 2.64

Query: Query IC50 for COCC1CCN(c2nccnc2Oc2ccc(Nc3nc4ccccc4s3)cc2)CC1 [drawing 741]
Response: 39.5

Query: Query IC50 for N#C[C@@H]1CCCN(c2nccnc2Oc2ccc(C(=O)c3nc4ccccc4[nH]3)cc2)C1 (stereo in doubt)
Response: 6.79

Query: Query IC50 for COC1CCN(c2nccnc2Oc2ccc(Nc3nc4ccccc4s3)cc2)CC1 [drawing 767]
Response: 37

Query: Query IC50 for COCC(=O)N1CCC(c2nccnc2Oc2ccc(Nc3nc4ccccc4s3)cc2)CC1 [drawing 946]
Response: 0.024

Query: Query IC50 for OCCC1CCN(c2nccnc2Oc2ccc(Nc3nc4ccccc4s3)cc2)CC1 [drawing 735]
Response: 9.55
